# test-system: huPD-L1 (Homo sapiens, UniProt Q9NZQ7)
# Sequence (Q9NZQ7 19-290): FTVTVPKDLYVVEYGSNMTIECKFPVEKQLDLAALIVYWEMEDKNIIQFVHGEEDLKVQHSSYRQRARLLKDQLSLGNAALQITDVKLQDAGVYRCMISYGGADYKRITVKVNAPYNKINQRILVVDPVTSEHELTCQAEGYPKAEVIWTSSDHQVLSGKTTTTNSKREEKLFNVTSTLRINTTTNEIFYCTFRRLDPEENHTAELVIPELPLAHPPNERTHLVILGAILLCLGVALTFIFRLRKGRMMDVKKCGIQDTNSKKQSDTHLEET
# procedure-details: Flow binding to CHO cells stably expressing PD-L1
# Design: huCTLA4 and huPD-L1, full-length mammalian surface expression constructs were generated; expressed in transfected cells; host or cells: CHO cells, lentiviral transduction, sorted to >98% purity
# reported-conditions: Table E11; CHO cells stably expressing PD-L1; 33.3 nM
# Procedure: Binding of selected immunomodulatory fusion proteins to cognate binding partners was assessed. […] Cells were sorted in a Bio-Rad S3 Cell Sorter (Bio-Rad Corp., USA) to >98% purity. […] For staining and analysis by flow cytometry, 100,000 cells of appropriate transfected cells were plated in 96-well round bottom plates. […] Cells were then washed twice with 150 μL/well stain buffer, fixed in 2% formaldehyde/PBS, and analyzed on Intellicyt flow cytometer (Intellicyt Corp., USA). […]
readout: PD-L1 MFI at 33.3 nM
Answers are plain numbers.

E35D/M43I/M47L/V68M (protein, UniProt P33681 35-288, looked up, variant E35D M43I M47L V68M) T-lymphocyte activation …: VIHVTKEVKEVATLSCGHNVSVEELAQTRIYWQKDKKMVLTMISGDLNIWPEYKNRTIFDITNNLSIMILALRPSDEGTYECVVLKYEKDAFKREHLAEVTLSVKADFPTPSISDFEIPTSNIRRIICSTSGGFPEPHLSWLENGEELNAINTTVSQDPETELYAVSSKLDFNMTTNHSFMCLIKYGHLRVNQTFNWNTTKQEHFPDNLLPSWAITLISVNGIFVICCLTYCFAPRCRERRRNERLRRESVRPV ... 16912
T13R/Q33L/E35D/M47V/T62S/V68M/L85M (protein, UniProt P33681 35-288, looked up, variant T13R Q33L E35D M47V T62S V68M L85M) T-lymphocyte activation …: VIHVTKEVKEVARLSCGHNVSVEELAQTRIYWLKDKKMVLTMMSGDVNIWPEYKNRTIFDISNNLSIMILALRPSDEGTYECVVMKYEKDAFKREHLAEVTLSVKADFPTPSISDFEIPTSNIRRIICSTSGGFPEPHLSWLENGEELNAINTTVSQDPETELYAVSSKLDFNMTTNHSFMCLIKYGHLRVNQTFNWNTTKQEHFPDNLLPSWAITLISVNGIFVICCLTYCFAPRCRERRRNERLRRESVRPV ... 3968
T13R/Q33R/E35D/M47L/V68M/L85M (protein, CD80 v382 ECD) VIHVTKEVKEVARLSCGHNVSVEELAQTRIYWRKDKKMVLTMMSGDLNIWPEYKNRTIFDITNNLSIMILALRPSDEGTYECVVMKYEKDAFKREHLAEVTLSVKADFPTPSISDFETPTSNIRRIICSTSGGFPEPHLSWLENGEELNAINTTVSQDPETELYAVSSKLDFNMTTNHSFMCLIKYGHLRVNQTFNWNTTKQEHFPDN ... 18938
T13R/Q33L/E35D/M47L/V68M/L85M (protein, UniProt P33681 35-288, looked up, variant T13R Q33L E35D M47L V68M L85M) T-lymphocyte activation …: VIHVTKEVKEVARLSCGHNVSVEELAQTRIYWLKDKKMVLTMMSGDLNIWPEYKNRTIFDITNNLSIMILALRPSDEGTYECVVMKYEKDAFKREHLAEVTLSVKADFPTPSISDFEIPTSNIRRIICSTSGGFPEPHLSWLENGEELNAINTTVSQDPETELYAVSSKLDFNMTTNHSFMCLIKYGHLRVNQTFNWNTTKQEHFPDNLLPSWAITLISVNGIFVICCLTYCFAPRCRERRRNERLRRESVRPV ... 3228

# input for lookup
Which measured PD-L1 MFI at 33.3 nM value corresponds to V22D/E24D/E35D/M47L/V68M/L85M/D90G (protein, CD80 v384 ECD) VIHVTKEVKEVATLSCGHNVSDEDLAQTRIYWQKDKKMVLTMMSGDLNIWPEYKNRTIFDITNNLSIMILALRPSDEGTYECVVMKYEKGAFKREHLAEVTLSVKADFPTPSISDFETPTSNIRRIICSTSGGFPEPHLSWLENGEELNAINTTVSQDPETELYAVSSKLDFNMTTNHSFMCLIKYGHLRVNQTFNWNTTKQEHFPDN ?
19047
